System: K562
Assay: Cytotoxicity against human K-562 cells after 72 hrs by MTT assay
Format: functional, cell-based
Conditions: K562, 72 h
Exercise: for every item that follows, state its recorded IC50.
API: value field is a number in µg/mL; no unit string.

Lookup: Which IC50 is listed for C=C(C)[C@@H]1CC[C@]2(C(=O)O)CC[C@]3(C)[C@H](CC[C@@H]4[C@@]5(C)Cc6c([nH]c7ccccc67)C(C)(C)[C@@H]5CC[C@]43C)[C@@H]12 ?
Found: 10

Lookup: For CC(C)[C@@H]1CC[C@]2(C(=O)O)CC[C@]3(C)[C@H](CC[C@@H]4[C@@]5(C)Cc6c(n(C)c7ccccc67)C(C)(C)[C@@H]5CC[C@]43C)[C@@H]12 , what is its reported IC50?
Found: 10.8

Lookup: Given C=C(C)[C@@H]1CC[C@]2(C(=O)O)CC[C@]3(C)[C@H](CC[C@@H]4[C@@]5(C)Cc6c(n(C)c7ccccc67)C(C)(C)[C@@H]5CC[C@]43C)[C@@H]12 , state its recorded IC50.
Found: 7.73

Lookup: Name the reported IC50 value associated with the molecule C=C(C)[C@@H]1CC[C@]2(C(=O)NCC(=O)O)CC[C@]3(C)[C@H](CC[C@@H]4[C@@]5(C)Cc6c([nH]c7ccccc67)C(C)(C)[C@@H]5CC[C@]43C)[C@@H]12
Found: 11.9
